Experiment: Plasma pharmacokinetics of baxdrostat and CIN-107-M, multiple ascending dose phase 1 study
Assay type: in vivo, human
Conditions: human, plasma, po, 1.5 mg, 1.5 mg oral once daily, normal-salt diet, day 1; read-out: Tmax,D1, median (min, max)
property_name: Tmax (h)
Express it in h; write the number only.

Ask: Please look up its Tmax: CCC(=O)N[C@@H]1CCCc2c(-c3ccc4c(c3)CCC(=O)N4C)cncc21
Reply: 2.5

###

Test: Plasma pharmacokinetics of baxdrostat and CIN-107-M, multiple ascending dose phase 1 study
Type: in vivo, human
Details: human, plasma, po, 1.5 mg, 1.5 mg oral once daily, normal-salt diet, day 10, mean ± SD; read-out: Cmax,D10
property_name: Cmax
Be sure to follow the number with its unit.

Ask: Please look up its Cmax: CCC(=O)N[C@@H]1CCCc2c(-c3ccc4c(c3)CCC(=O)N4C)cncc21
Reply: 29.9 ng/mL

###

Experiment: Plasma pharmacokinetics of baxdrostat and CIN-107-M, multiple ascending dose phase 1 study
Type: in vivo, human
Conditions: human, plasma, po, 5 mg, 5.0 mg oral once daily, low-salt diet, day 1; read-out: Tmax,D1, median (min, max)
property_name: Tmax (h)
Express it in h; write the number only.

Ask: Please look up its Tmax: CCC(=O)N[C@@H]1CCCc2c(-c3ccc4c(c3)CCC(=O)N4C)cncc21
Reply: 3.02

###

Assay: Plasma pharmacokinetics of baxdrostat and CIN-107-M, multiple ascending dose phase 1 study
Assay type: in vivo, human
Settings: human, plasma, po, 0.5 mg, 0.5 mg oral once daily, normal-salt diet, day 1; read-out: Tmax,D1, median (min, max)
Procedure: […] Plasma and urine samples were analyzed to measure concentrations of baxdrostat and its primary metabolite (CIN-107-M), aldosterone and its precursors, cortisol and its precursor, and ACTH using a validated liquid chromatography tandem mass spectrometry method (LC-MS/MS). […]
property_name: Tmax (h)
Express it in h; write the number only.

Ask: Please look up its Tmax: CCC(=O)N[C@@H]1CCCc2c(-c3ccc4c(c3)CCC(=O)N4C)cncc21 [baxdrostat]
Reply: 2

###

Test: Plasma pharmacokinetics of baxdrostat and CIN-107-M, multiple ascending dose phase 1 study
Assay type: in vivo, human
Details: human, plasma, po, 0.5 mg, 0.5 mg oral once daily, normal-salt diet, day 10, mean ± SD; read-out: Cmax,D10
property_name: Cmax (ng/mL)
Express it in ng/mL; write the number only.

Ask: Please look up its Cmax: CCC(=O)N[C@@H]1CCCc2c(-c3ccc4c(c3)CCC(=O)N4C)cncc21
Reply: 9.72

###

Test: Plasma pharmacokinetics of baxdrostat and CIN-107-M, multiple ascending dose phase 1 study
Format: in vivo, human
Conditions: human, plasma, po, 5 mg, 5.0 mg oral once daily, low-salt diet, day 10, mean ± SD; read-out: Cmax,D10
property_name: Cmax

Ask: Please look up its Cmax: CCC(=O)N[C@@H]1CCCc2c(-c3ccc4c(c3)CCC(=O)N4C)cncc21
Reply: 113 ng/mL

###

Assay: Plasma pharmacokinetics of baxdrostat and CIN-107-M, multiple ascending dose phase 1 study
Assay type: in vivo, human
Settings: human, plasma, po, 2.5 mg, 2.5 mg oral once daily, low-salt diet, day 1; read-out: Tmax,D1, median (min, max)
property_name: Tmax (h)
Express it in h; write the number only.

Ask: Please look up its Tmax: CCC(=O)N[C@@H]1CCCc2c(-c3ccc4c(c3)CCC(=O)N4C)cncc21
Reply: 3

###

Test: Plasma pharmacokinetics of baxdrostat and CIN-107-M, multiple ascending dose phase 1 study
Format: in vivo, human
Details: human, plasma, po, across doses 0.5-5.0 mg oral once daily; read-out: median Tmax (time to peak plasma concentration after dosing)
Description: […] Plasma and urine samples were analyzed to measure concentrations of baxdrostat and its primary metabolite (CIN-107-M), aldosterone and its precursors, cortisol and its precursor, and ACTH using a validated liquid chromatography tandem mass spectrometry method (LC-MS/MS). […]
property_name: Tmax

Ask: Please look up its Tmax: CCC(=O)N[C@@H]1CCCc2c(-c3ccc4c(c3)CCC(=O)N4C)cncc21 [baxdrostat]
Reply: ≤ 4 h

###

Experiment: Plasma pharmacokinetics of baxdrostat and CIN-107-M, multiple ascending dose phase 1 study
Type: in vivo, human
Settings: human, plasma, po, 1.5 mg, 1.5 mg oral once daily, normal-salt diet, day 10; read-out: Tmax,D10, median (min, max)
property_name: Tmax (h)
Express it in h; write the number only.

Ask: Please look up its Tmax: CCC(=O)N[C@@H]1CCCc2c(-c3ccc4c(c3)CCC(=O)N4C)cncc21
Reply: 2.5

###

Assay: Plasma pharmacokinetics of baxdrostat and CIN-107-M, multiple ascending dose phase 1 study
Assay type: in vivo, human
Settings: human, plasma, po, 1.5 mg, 1.5 mg oral once daily, normal-salt diet, day 10, mean ± SD; read-out: t1/2 (converted)
property_name: half-life (h)
Express it in h; write the number only.

Ask: Please look up its half-life: CCC(=O)N[C@@H]1CCCc2c(-c3ccc4c(c3)CCC(=O)N4C)cncc21
Reply: 29.9
